The reader will find reported % Inhibition of forepaw treading, 4 h values listed item by item below.
biological target: 5-HT1A receptors (Rattus norvegicus, UniProt P19327); construct: stereotyped forepaw treading induced in rats by subcutaneous injection of 8-OH-DPAT; from tissue; host or cells: whole animal (male Sprague-Dawley rats), endogenous post-synaptic receptors; assay: Inhibition of stereotypy (rhythmic forepaw treading) induced by 8-OH-DPAT in rats (post-synaptic antagonism); type: in vivo; details: 10 mg/kg p.o., given 4 h before 8-OH-DPAT (1 mg/kg s.c.)
Sequence (P19327 whole entry): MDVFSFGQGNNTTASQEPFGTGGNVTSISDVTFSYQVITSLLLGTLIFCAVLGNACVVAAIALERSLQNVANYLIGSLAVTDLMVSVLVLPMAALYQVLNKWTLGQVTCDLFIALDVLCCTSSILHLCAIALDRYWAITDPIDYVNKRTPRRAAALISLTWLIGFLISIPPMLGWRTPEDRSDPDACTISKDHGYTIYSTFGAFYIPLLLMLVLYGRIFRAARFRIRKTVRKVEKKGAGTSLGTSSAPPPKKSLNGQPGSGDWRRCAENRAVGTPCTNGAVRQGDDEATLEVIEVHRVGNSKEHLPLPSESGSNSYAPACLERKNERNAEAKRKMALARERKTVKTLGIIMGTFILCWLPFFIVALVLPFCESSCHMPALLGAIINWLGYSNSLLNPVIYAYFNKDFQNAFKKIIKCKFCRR
Kindly provide the numeric value in % only, without the unit symbol.

Worked examples follow.
COMPOUND	QUANTITY	MEASURED RESULT
CCNC(=O)O[C@@H](C1CCCCC1)[C@H](CCN1CCN(c2ccccc2OC)CC1)c1ccccc1F (racemic) [Example 47]	% Inhibition of forepaw treading, 4 h	58
COc1ccccc1N1CCN(CC[C@H](c2ccccc2F)[C@@H](OC(N)=O)C2CCCCC2)CC1 (racemic) [Example 48]	% Inhibition of forepaw treading, 4 h	74
COc1ccccc1N1CCN(CC[C@H](c2ccccc2F)[C@@H](OC(C)=O)C2CCCCC2)CC1 (racemic) [Example 45]	% Inhibition of forepaw treading, 4 h	81
CC#CC(O)C(CCN1CCN(c2cccc3c2OCCO3)CC1)c1ccccc1 (centres unmarked) [Example 31]	% Inhibition of forepaw treading, 4 h	18

Lab book: % Inhibition of forepaw treading, 4 h of COc1cc(F)ccc1N1CCN(CCC(c2ccccc2C#N)C(O)C2CCCCC2)CC1 (centres unmarked) [Example 16] noted as 17
